- ASSAY_TARGET: T1, GST-tagged yeast Sin3 PAH2 protein (residues 402-473) (S. cerevisiae, UniProt P22579 402-473)
- T1 sequence (looked up): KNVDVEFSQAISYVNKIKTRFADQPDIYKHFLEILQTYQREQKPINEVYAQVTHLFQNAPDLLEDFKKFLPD
- EXPERIMENTAL_DETAILS: fluorescence polarisation
QUANTITY_KIND: Ki (µM)
All answers are understood in µM, so give the number only.

Asked: Look up Ki for this binder: LDDDLGTAAAVLSNMR (peptide, UniProt P39001 516-531, looked up) [unlabeled Ume6 SID peptide (Ume6 residues 516-531)]
Given back: 11.4
